- experimental-system: T1, Cdc42 labelled with the extrinsic fluorophore sNBD (UniProt P60953 1-191, sNBD fluorophore (site not stated))
- T1 construct: Cdc42, small GTPase; also called sNBD-labeled Cdc42
- T1 sequence (P60953 whole entry): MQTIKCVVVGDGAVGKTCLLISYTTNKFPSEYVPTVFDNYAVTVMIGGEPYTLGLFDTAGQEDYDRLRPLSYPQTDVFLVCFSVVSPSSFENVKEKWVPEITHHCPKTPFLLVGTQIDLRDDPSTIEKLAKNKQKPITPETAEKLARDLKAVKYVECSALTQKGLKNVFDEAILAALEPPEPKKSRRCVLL
- experiment-summary: other fluorescence titration; Cdc42 labelled with the extrinsic fluorophore sNBD, PBD46 titrated; heat-purified and conventional PBD46 compared
- measurement-conditions: both partners purified
metric-name: Kd

# query: Kd of entry KKEKERPEISLPSDFEHTIHVGFDAVTGEFTGMPEQWARLLQTSNI (peptide, UniProt Q13153 67-112, looked up, The heat-purified and the conventionally purified sample are the same construct from the same host; also called PAK1-derived peptide; heat-purified PBD46; source: E. coli, as GST-PBD46) [PBD46, 46-residue peptide from PAK1 (PAK1 CRIB domain, residues 67-112)]
~83 nM
